test system: CIT; details: concentration: 1 μM, replicates: in singlicate; n = 1;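 note: KINOMEscan kinase panel screen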
Hi there, I'd appreciate the recorded %Inh for every entry that follows.
Lab book: enter the figure in %, no units written.

CIT / %Inh / "CC(=O)c1c(C)c2cnc(Nc3ccn(C)n3)nc2n(C2CCCC2)c1=O" : value?
4

Request - read-out %Inh | tested on CIT | compound "Cc1ccc(NC(=O)c2ccc(Cl)cc2)cc1-c1ccc(C(=O)Nc2ccncc2)cc1"
69

Return %Inh measured with CIT given this compound: "CCc1ccc(-c2ccc3c(c2)-c2n[nH]cc2S(=O)(=O)N3C)cc1"
0

Fill in the recorded %Inh for this compound, with CIT as test system: "O=C(Nc1n[nH]c2cc(-c3ccsc3)ccc12)C1CC1"
0

API: value(readout=%Inh, system=CIT) for record "CC[C@@H]1CO[C@H](C(=O)Nc2ccccc2)CN1c1cc(-c2ccc3c(N)n[nH]c3c2)nc(NC)n1"
98.5

Hi! What's the reported %Inh for "Fc1ccc(-c2nc3n(c2-c2ccncc2)CCS3)cc1" on CIT?
92.9

// map "Cc1ccc(NC(=O)Nc2ccccc2F)cc1-c1ccc(C(=O)Nc2ccncc2)cc1" to recorded %Inh (system: CIT)
89

Lab note: need %Inh with CIT for entry O=C(Nc1n[nH]c2nc(-c3ccco3)c(Br)cc12)C1CCN(Cc2ccccc2)C1.O=C(O)[C@H](O)[C@@H](O)C(=O)O (centres unmarked) , please look it up.
0

====

Consider the following molecules; for each one, report its %Inh.
system: JAK1(JH2domain-pseudokinase); settings: concentration: 1 μM, replicates: in singlicate; n = 1
Your answer should be a number followed by the unit of measure.

Would you kindly share the measured %Inh for "COc1ccc(Nc2nccc(-c3ccc(NC(=O)c4cc5cc(F)ccc5[nH]4)cc3)n2)cc1" ?
0%

# get_value(readout='%Inh', item= "CNc1nc(-c2ccc3c(N)n[nH]c3c2)cc(N2C[C@@H](C(=O)NC3CCCCC3)OC[C@H]2C)n1" )
0%

Entry under review: "CSc1ccc(-c2nc3n(c2-c2ccncc2)CCC3)cc1" . Reported %Inh?
15%

Report %Inh for "Cc1ccc(NC(=O)Nc2ccc(Cl)cc2)cc1-c1ccc(C(=O)Nc2ccncc2)cc1" please.
0%

Record request: %Inh value, item "CNc1nc(-c2ccc3c(N)n[nH]c3c2)cc(N2C[C@@H](C(=O)Nc3ccccc3)CC[C@H]2C)n1"
0%

Fill in: %Inh of "O=c1cc(N2CCOCC2)nc2n(Cc3cccc(Cl)c3Cl)c3ccccc3n12" is ___
0%

Endpoint output: %Inh of "COc1ccc(-c2coc3ccc(-c4nnc(C)o4)cc23)cc1" . Value?
0%

Find the recorded %Inh belonging to "CN1c2ccc(-c3ccc(C(N)=O)cc3)cc2-c2[nH]ncc2S1(=O)=O" and report it.
37%

For "CNC(=O)c1ccc(C)c(-n2c(C)cc(OCc3ccc(F)cc3F)c(Br)c2=O)c1" , what is its reported %Inh?
0%

====

What %Inh was measured for each of the following?
system: GAK; settings: concentration: 1 μM, replicates: in singlicate; n = 1
Output spec: scalar in %, unitless text.

Query: %Inh; subject: "O=C(Nc1n[nH]c2nc(-c3cccs3)c(Br)cc12)C1CCCC1"
0

Endpoint output: %Inh of "CC(=O)c1c(C)c2cnc(Nc3ccn(C)n3)nc2n(C2CCCC2)c1=O" . Value?
0

Item "COc1ccc(Nc2nccc(NCCNC(=O)Nc3cc(C)ccc3C)n2)cc1" has what recorded %Inh?
0

====

system: AKT2; settings: concentration: 1 μM, replicates: in singlicate; n = 1
Please respond with reported %Inh for every item in the list.
All answers are understood in %, so give the number only.

Any idea what its %Inh is? The molecule is COC(=O)C(NC(=O)NC1CCN(c2ccnc(Nc3ccc(F)cc3)n2)C1)c1ccccc1 (stereo not drawn) [GSK1379712]
0

Item under review: Nc1cccc(-c2ccc3c(N)n[nH]c3c2)n1 [GSK2192730] . Reported %Inh?
0

# query: %Inh of entry CCCCc1nn2ncccc2c1-c1ccnc(NC2CC2)n1 [GW684374]
0

Name the recorded %Inh for Cc1ccccc1-c1cc(-c2c[nH]nc2-c2ccccn2)ccn1 [GW680061] .
3

# lookup: %Inh of CS(=O)(=O)CCNCc1nc(-c2ccc3ncnc(Nc4ccc5c(cnn5Cc5ccccc5)c4)c3c2)cs1.Cl.Cl [GW569716]
2

Name the reported %Inh value associated with the molecule COc1cccc(CNC(=O)NC2CCN(c3ccnc(Nc4ccc(F)cc4)n3)C2)c1 (stereo not drawn) [GSK1379723]
12

I would be grateful if you could share the reported %Inh for O=C(Nc1n[nH]c2cc(-c3ccsc3)ccc12)C1CC1 [SB-732932] .
21

Please give the measured %Inh for this molecule: CCn1c(-c2ccccc2)nc2cnccc21 [SB-733416]
14

So what's the measured %Inh for this one? Cc1ccc(NC(=O)Nc2ccc(Cl)c(C(F)(F)F)c2)cc1-c1ccc(C(=O)Nc2ccncc2)cc1 [GSK1398470]
16

====

tested on: LCK; conditions: concentration: 1 μM, replicates: in singlicate; n = 1
Label rule, in plain words: %Inh of 30% and up is 1, under 30% is -1.

Is %Inh at least 30%? Consider "Cc1ccc(NC(=O)Nc2ccccc2F)cc1-c1ccc(C(=O)Nc2ccncc2)cc1"
1

%Inh >= 30% for "CS(=O)(=O)CCNCc1nc(-c2ccc3ncnc(Nc4ccc5c(cnn5Cc5ccccc5)c4)c3c2)cs1.Cl.Cl" ?
-1

For this compound, is measured %Inh 30% or higher? COc1ccc(Nc2nccc(N3CCC(NC(=O)C(C)c4ccc(Cl)cc4)C3)n2)cc1 (centres unmarked)
1

In plain terms: is recorded %Inh at least 30% for COc1ccc(Nc2nccc(N3CCC(NC(=O)C(C)c4ccc(Cl)cc4)CC3)n2)cc1 (centres unmarked) ?
1

Test whether the compound "Cc1ccc(NC(=O)c2ccc(Cl)cc2)cc1-c1ccc(C(=O)Nc2ccncc2)cc1" records %Inh of 30% or higher.
1

Say whether "CNc1cc(-c2ccc3c(N)n[nH]c3c2)nc(N)n1" shows %Inh of 30% or more.
-1

Dear colleague, could you confirm whether "O=c1cc(N2CCOCC2)nc2n(Cc3cccc(Cl)c3Cl)c3ccccc3n12" has %Inh at or above 30%?
1

State whether the measured %Inh reaches 30%, counting equality as reaching it, for "CN1c2ccc(-c3ccc(C(N)=O)cc3)cc2-c2[nH]ncc2S1(=O)=O"
-1

Tell me whether %Inh is at least 30% here: "Cc1ccccc1Cn1ccn2c(=O)cc(N3CCOCC3)nc12"
-1

Given "CC(C)c1cc(-c2ccc3c(N)n[nH]c3c2)nc(N)n1" , state whether its %Inh is at least 30%.
-1

Please tell me: is the compound "O=C(Nc1n[nH]c2cc(-c3ccsc3)ccc12)C1CC1" at or over 30% in terms of %Inh?
-1

Please tell me: is the compound "CCCCc1nn2ncccc2c1-c1ccnc(NC2CC2)n1" at or over 30% in terms of %Inh?
-1

Test whether the compound "COc1cccc(C2=C(Nc3cc(Cl)c(O)c(Cl)c3)C(=O)NC2=O)c1" records %Inh of 30% or higher.
-1

Has "CCc1ccc(-c2ccc3c(c2)-c2n[nH]cc2S(=O)(=O)N3C)cc1" a recorded %Inh greater than or equal to 30%?
-1

====

tested on: CAMK1; conditions: concentration: 1 μM, replicates: in singlicate; n = 1
parameter: %Inh (%)
Express your answer in %, writing the number without its unit.

Could you share what %Inh was measured for O=C(Nc1n[nH]c2cc(-c3ccsc3)ccc12)C1CC1 [SB-732932] , tested on CAMK1?
30

What reported %Inh corresponds to COC(=O)c1cccc(NC(=O)NC2CCN(c3ccnc(Nc4ccc(F)cc4)n3)C2)c1 (stereo not shown) [GSK1379725] on CAMK1?
0

Please provide the recorded %Inh for CCn1c(-c2ccccc2)nc2cnccc21 [SB-733416] , tested on CAMK1.
0

Which measured %Inh belongs to Fc1ccc(-c2nc[nH]c2-c2ccncc2)cc1 [SB-217360] , tested on CAMK1?
0

Record FC(F)(F)c1ccccc1-c1cc(-c2c[nH]nc2-c2ccccn2)ccn1 [GW679396] : what is its %Inh with CAMK1?
21

// fetch CAMK1 %Inh for Cn1cncc1C(=O)NC1CCN(c2ccnc(Nc3ccc(F)cc3)n2)C1 (stereo not shown) [GSK1379717]
16

Enter reported %Inh observed with CAMK1 for Fc1ccc(-c2nc3n(c2-c2ccncc2)CCS3)cc1 [GI98581]
0

// fetch CAMK1 %Inh for CCn1c(-c2c(N)noc2C)nc2cnccc21 [SB-737856]
0

Request: %Inh, test system CAMK1, entry Cc1ccccc1Cn1ccn2c(=O)cc(N3CCOCC3)nc12 [GSK2269905]
2

// fetch CAMK1 %Inh for CSc1ccc(-c2nc3n(c2-c2ccncc2)CCC3)cc1 [SKF-105561]
0

Test system CAMK1; read-out %Inh; what value for "COc1ccc(CSc2nnc(-c3ccc4ncsc4c3)o2)cc1C(F)(F)F" ?
1

Provide the documented %Inh with CAMK1 as the system for O=C(Nc1n[nH]c2nc(-c3cccs3)c(Br)cc12)C1CC1 [SB-735297]
0

Request - read-out %Inh | tested on CAMK1 | compound COc1ccc(Nc2nccc(N3CCC(NC(=O)C(C)c4ccc(Cl)cc4)C3)n2)cc1 (stereo not shown) [GSK1379735]
9

Param readout = %Inh; param system = CAMK1; param query = COC(=O)c1cccc(NC(=O)NC2CCN(c3ccnc(Nc4ccc(OC)cc4)n3)C2)c1 (stereo not shown) [GSK1379746] ; response: value
0

For the record c1ccc(-c2ccnc3[nH]ccc23)cc1 [SB-693578] , what value of %Inh is listed for CAMK1?
14

Give CAMK1 %Inh for CC(C)c1cc(-c2ccc3c(N)n[nH]c3c2)nc(N)n1 [GSK2250882]
21

Notebook entry, CAMK1 assay: %Inh of Cc1c(Cn2c(C)c(C)n3c(=O)cc(N4CCOCC4)nc23)cccc1C(F)(F)F [GSK2328680] = ?
7

Entry Cc1ccc(NC(=O)Nc2ccc(Cl)c(C(F)(F)F)c2)cc1-c1ccc(C(=O)Nc2ccncc2)cc1 [GSK1398470] , system CAMK1: what %Inh was measured?
17

Report %Inh for COc1ccc2cc(-c3nc(-c4ccccc4C(C)C)[nH]c3-c3ccncc3)ccc2c1 [SB-660566] tested on CAMK1.
7
